EXPERIMENT SUMMARY: Cytotoxic activity against human MT4 cells assessed as viability of mock-infected cells after 5 days by MTT assay
Type: cell-based
PROPERTY NAME: CC50 at 120 h (µM)
Respond with the bare value in µM.

// solved cases for CC50 at 120 h follow
- CCc1c(CN2CCCc3ccccc32)nc(SCc2ccc(Cl)cc2)[nH]c1=O: 135
- O=C(CSc1nc(CN2CCCc3ccccc32)cc(=O)[nH]1)c1ccc([N+](=O)[O-])cc1: 209
- Cc1c(CN2CCCc3ccccc32)nc(SCc2ccc([N+](=O)[O-])cc2)[nH]c1=O: 76.9
- Cc1c(CN2CCCc3ccccc32)nc(SCC(=O)c2ccc([N+](=O)[O-])cc2)[nH]c1=O: 23.7
- O=c1cc(CN2CCCc3ccccc32)nc(SCc2ccc([N+](=O)[O-])cc2)[nH]1: 73.9
- O=c1cc(CN2CCCc3ccccc32)nc(SCc2ccc(F)cc2)[nH]1: 182

What value of measured CC50 at 120 h is listed for "Cc1ccc(CSc2nc(CN3CCCc4ccccc43)cc(=O)[nH]2)cc1" ?
64.3

Entry under review: "CCc1c(CN2CCCc3ccccc32)nc(SCC(=O)c2ccc(C)cc2)[nH]c1=O" . Reported CC50 at 120 h?
288

Reported CC50 at 120 h for "Cc1c(CN2CCCc3ccccc32)nc(SCC(=O)c2ccc(F)cc2)[nH]c1=O" : what is it?
15.4

Fill in: CC50 at 120 h of "CCc1c(CN2CCCc3ccccc32)nc(SCC(=O)c2ccc([N+](=O)[O-])cc2)[nH]c1=O" is ___
111

Can you share its CC50 at 120 h? I mean this molecule: "COc1ccc(CSc2nc(CN3CCCc4ccccc43)cc(=O)[nH]2)cc1"
181

Which measured CC50 at 120 h value corresponds to "O=c1cc(CN2CCCc3ccccc32)nc(SCc2ccccc2)[nH]1" ?
94.2

Sample "COc1ccc(C(=O)CSc2nc(CN3CCCc4ccccc43)cc(=O)[nH]2)cc1" — what was its CC50 at 120 h?
160

What does the data say about its CC50 at 120 h? Entry: "CCc1c(CN2CCCc3ccccc32)nc(SCC(=O)c2ccc(Cl)cc2)[nH]c1=O"
275

CC50 at 120 h for "Cc1c(CN2CCCc3ccccc32)nc(SCC(=O)c2ccccc2)[nH]c1=O" ?
12.2

Which CC50 at 120 h value belongs to "CCc1c(CN2CCCc3ccccc32)nc(SCc2ccc(C)cc2)[nH]c1=O" ?
160

Reported CC50 at 120 h for "Cc1ccc(C(=O)CSc2nc(CN3CCCc4ccccc43)c(C)c(=O)[nH]2)cc1" : what is it?
62.4

====

TEST TARGET: Human immunodeficiency virus type 1 reverse transcriptase (Human immunodeficiency virus 1, UniProt Q72547)
PROPERTY NAME: IC50
Form entry: enter the amount, then its unit.

Data request, read-out IC50, for "CCc1c(CN2CCCc3ccccc32)nc(SCC(=O)c2ccccc2)[nH]c1=O"
30.7 µM

====

Reported selectivity ratio is given for each of the following compounds.
EXPERIMENT SUMMARY: Selectivity index, ratio of CC50 for human MT4 cells to EC50 for wild type Human immunodeficieny virus 1 3B infected in human MT4 cells
Type: toxicity, cell-based
MEASUREMENT PARAMETERS: read-out: Ratio CC50/EC50

# example entries with known answers
* Cc1cn([C@H]2C[C@H](N=[N+]=[N-])[C@@H](CO)O2)c(=O)[nH]c1=O | > 6190
* Cc1ccc(CSc2nc(CN3CCCc4ccccc43)c(C)c(=O)[nH]2)cc1 | ≤ 1
* CCc1c(CN2CCCc3ccccc32)nc(SCc2ccc(Cl)cc2)[nH]c1=O | ≤ 25
* O=C1Nc2ccc(Cl)cc2[C@@](C#CC2CC2)(C(F)(F)F)O1 | > 1430
* Cc1c(CN2CCCc3ccccc32)nc(SCc2ccc(Cl)cc2)[nH]c1=O | ≤ 29
* N#Cc1ccc(C(=O)CSc2nc(CN3CCCc4ccccc43)cc(=O)[nH]2)cc1 | > 1
* Cc1c(CN2CCCc3ccccc32)nc(SCc2ccccc2)[nH]c1=O | < 1
* O=C(CSc1nc(CN2CCCc3ccccc32)cc(=O)[nH]1)c1ccc(Cl)cc1 | < 1
* O=c1cc(CN2CCCc3ccccc32)nc(SCc2ccc([N+](=O)[O-])cc2)[nH]1 | ≤ 2
* Cc1c(CN2CCCc3ccccc32)nc(SCc2ccc(F)cc2)[nH]c1=O | < 1

// returns reported selectivity ratio for input "CCc1c(CN2CCCc3ccccc32)nc(SCc2ccc(F)cc2)[nH]c1=O"
< 1

# get_value(readout='selectivity ratio', item= "CCc1c(CN2CCCc3ccccc32)nc(SCc2ccccc2)[nH]c1=O" )
< 1

====

EXPERIMENT SUMMARY: Selectivity index, ratio of CC50 for human MT4 cells to EC50 for wild type Human immunodeficieny virus 1 3B infected in human MT4 cells
Format: toxicity, cell-based
MEASUREMENT PARAMETERS: read-out: Ratio CC50/EC50
In this section we review reported selectivity ratio values for a set of compounds.

• COc1ccc(C(=O)CSc2nc(CN3CCCc4ccccc43)c(C)c(=O)[nH]2)cc1 = 144
• Cc1ccc(C(=O)CSc2nc(CN3CCCc4ccccc43)c(C)c(=O)[nH]2)cc1 = 32
• Cc1ccc(CSc2nc(CN3CCCc4ccccc43)cc(=O)[nH]2)cc1 = < 1
• O=c1cc(CN2CCCc3ccccc32)nc(SCc2ccc(F)cc2)[nH]1 = 6
• O=c1cc(CN2CCCc3ccccc32)nc(SCc2ccc(Cl)cc2)[nH]1 = < 1
• O=C(CSc1nc(CN2CCCc3ccccc32)cc(=O)[nH]1)c1ccc(F)cc1 = 5
• CC(C)Nc1cccnc1N1CCN(C(=O)c2cc3cc(NS(C)(=O)=O)ccc3[nH]2)CC1 = > 12
• Cc1c(CN2CCCc3ccccc32)nc(SCC(=O)c2ccc(Cl)cc2)[nH]c1=O = 19

Fill in: selectivity ratio of "O=C(CSc1nc(CN2CCCc3ccccc32)cc(=O)[nH]1)c1ccc([N+](=O)[O-])cc1" is ___
< 1

# get_value(readout='selectivity ratio', item= "CCc1c(CN2CCCc3ccccc32)nc(SCc2ccc(C#N)cc2)[nH]c1=O" )
125

Entry under review: "Cc1c(CN2CCCc3ccccc32)nc(SCC(=O)c2ccccc2)[nH]c1=O" . Reported selectivity ratio?
31

Entry "COc1ccc(C(=O)CSc2nc(CN3CCCc4ccccc43)cc(=O)[nH]2)cc1" : reported selectivity ratio = ?
7

Entry "CCc1c(CN2CCCc3ccccc32)nc(SCc2ccc(C)cc2)[nH]c1=O" : reported selectivity ratio = ?
< 29

====

Here the recorded CC50 at 120 h is given for each entry.
EXPERIMENT SUMMARY: Cytotoxic activity against human MT4 cells assessed as viability of mock-infected cells after 5 days by MTT assay
Type: cell-based

Would you please look over these solved cases?
* O=C1Nc2ccc(Cl)cc2[C@@](C#CC2CC2)(C(F)(F)F)O1 | > 6.34 µM
* CC(C)Nc1cccnc1N1CCN(C(=O)c2cc3cc(NS(C)(=O)=O)ccc3[nH]2)CC1 | > 3.83 µM
* Cc1cn([C@H]2C[C@H](N=[N+]=[N-])[C@@H](CO)O2)c(=O)[nH]c1=O | > 93.5 µM

Now, please, on to the next molecule.
Requested read-out: CC50 at 120 h. Entry: "Cc1ccc(CSc2nc(CN3CCCc4ccccc43)c(C)c(=O)[nH]2)cc1"
≥ 86.2 µM

====

EXPERIMENT SUMMARY: Cytotoxic activity against human MT4 cells assessed as viability of mock-infected cells after 5 days by MTT assay
Assay type: cell-based
# Lookup of reported CC50 at 120 h keyed by entry

- N#Cc1ccc(C(=O)CSc2nc(CN3CCCc4ccccc43)cc(=O)[nH]2)cc1: > 197 µM
- O=c1cc(CN2CCCc3ccccc32)nc(SCc2ccc(Cl)cc2)[nH]1: > 53.6 µM

Endpoint output: CC50 at 120 h of "Cc1ccnc2c1NC(=O)c1cccnc1N2C1CC1" . Value?
> 15 µM
